System: human factor XIa (Homo sapiens (Human), UniProt P03951) | Read-out: IC50
Sequence (P03951 388-625): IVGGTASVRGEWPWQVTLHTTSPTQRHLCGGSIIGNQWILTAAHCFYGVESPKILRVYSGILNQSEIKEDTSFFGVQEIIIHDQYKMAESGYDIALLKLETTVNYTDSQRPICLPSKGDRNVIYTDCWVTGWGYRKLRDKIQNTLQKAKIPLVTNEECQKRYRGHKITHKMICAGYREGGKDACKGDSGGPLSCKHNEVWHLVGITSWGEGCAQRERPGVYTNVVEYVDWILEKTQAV
Sequence (P03951 19-387 partner): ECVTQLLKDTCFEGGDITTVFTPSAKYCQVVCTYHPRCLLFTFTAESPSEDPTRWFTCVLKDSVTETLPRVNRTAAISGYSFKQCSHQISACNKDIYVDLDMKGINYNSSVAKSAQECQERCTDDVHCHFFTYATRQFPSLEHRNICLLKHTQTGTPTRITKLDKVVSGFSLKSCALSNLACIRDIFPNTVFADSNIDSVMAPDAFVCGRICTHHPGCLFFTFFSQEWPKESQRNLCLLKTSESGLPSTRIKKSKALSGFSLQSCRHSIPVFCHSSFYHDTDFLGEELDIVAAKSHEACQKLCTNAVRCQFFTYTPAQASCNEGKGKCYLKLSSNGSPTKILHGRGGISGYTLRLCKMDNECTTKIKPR
// note: answer is a bare numeric in nM

Exercise: Could you share what IC50 was measured for CCC(C(=O)Nc1ccc(C(=O)O)cc1)n1cc2c(cc1=O)-c1cc(Cl)ccc1C1(CC1)NC2=O (stereo not drawn) [Example 3] , tested on human factor XIa (Homo sapiens (Human), UniProt P03951)?
Key: 180

Exercise: Could you share what IC50 was measured for O=C(Cn1cc2c(cc1=O)-c1cc(Cl)ccc1CCNC2=O)Nc1ccc(-c2noc(=O)[nH]2)cc1 [Example 5] , tested on human factor XIa (Homo sapiens (Human), UniProt P03951)?
Key: 350

Exercise: Could you share what IC50 was measured for CCC(C(=O)Nc1ccc(-c2noc(=O)[nH]2)cc1)n1cc2c(cc1=O)-c1cc(Cl)ccc1CNC2=O (stereo not drawn) [Example 2] , tested on human factor XIa (Homo sapiens (Human), UniProt P03951)?
Key: 280

* * *

# system.tested: human plasma kallikrein (Homo sapiens (Human))
# Sequence (P03952 391-638): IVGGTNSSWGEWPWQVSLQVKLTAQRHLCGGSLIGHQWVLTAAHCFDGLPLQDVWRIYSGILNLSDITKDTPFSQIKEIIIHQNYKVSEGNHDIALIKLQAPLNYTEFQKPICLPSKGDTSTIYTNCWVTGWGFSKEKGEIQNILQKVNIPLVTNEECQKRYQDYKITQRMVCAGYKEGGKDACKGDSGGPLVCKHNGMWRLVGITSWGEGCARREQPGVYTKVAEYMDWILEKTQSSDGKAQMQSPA
# Sequence (P03952 20-390 partner): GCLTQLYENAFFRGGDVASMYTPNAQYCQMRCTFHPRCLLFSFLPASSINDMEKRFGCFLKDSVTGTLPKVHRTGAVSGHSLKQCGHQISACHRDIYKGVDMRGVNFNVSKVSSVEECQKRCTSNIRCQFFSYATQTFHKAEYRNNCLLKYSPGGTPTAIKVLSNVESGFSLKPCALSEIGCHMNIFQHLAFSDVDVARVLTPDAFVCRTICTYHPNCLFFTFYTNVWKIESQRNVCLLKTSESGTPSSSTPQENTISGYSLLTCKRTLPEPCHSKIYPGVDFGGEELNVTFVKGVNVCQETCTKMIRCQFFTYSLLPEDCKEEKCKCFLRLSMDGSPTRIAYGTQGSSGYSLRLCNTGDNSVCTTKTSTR
# assay.info: Determination of the plasma kallikrein activity
# setup.conditions: plasma kallikrein from Kordia, substrate H-Pro-Phe-Arg-AMC, fluorescence
Exercise: state measured IC50 for each of the molecules provided.
// note: answer is a bare numeric in nM

Exercise: Could you share what IC50 was measured for O=C1NC2(CC2)Cc2ccc(Cl)cc2-c2cc(=O)n(C(Cc3ccccc3)C(=O)Nc3ccc4[nH]c(=O)[nH]c4c3)cc21 (centres unmarked) , tested on human plasma kallikrein (Homo sapiens (Human))?
Key: 42

Exercise: Could you share what IC50 was measured for CO[C@H]1CC[C@H](CC(C(=O)Nc2ccc(C(=O)O)cc2)n2cc3c(cc2=O)-c2cc(Cl)ccc2CC2(CC2)NC3=O)CC1 (some centres unmarked) , tested on human plasma kallikrein (Homo sapiens (Human))?
Key: 370

Exercise: Could you share what IC50 was measured for COCCC(C(=O)Nc1ccc2c(=O)n(C)[nH]c2c1)n1cc2c(cc1=O)-c1cc(Cl)ccc1CC1(CC1)NC2=O (centres unmarked) , tested on human plasma kallikrein (Homo sapiens (Human))?
Key: 230

Exercise: Could you share what IC50 was measured for COCCC(C(=O)Nc1ccc2nn(C)cc2c1)n1cc2c(cc1=O)-c1cc(Cl)ccc1CC1(CC1)NC2=O (centres unmarked) , tested on human plasma kallikrein (Homo sapiens (Human))?
Key: 240

Exercise: Could you share what IC50 was measured for O=C(Cn1cc2c(cc1=O)-c1cc(Cl)ccc1CCNC2=O)Nc1ccc(C(=O)O)cc1 , tested on human plasma kallikrein (Homo sapiens (Human))?
Key: 18000

Exercise: Could you share what IC50 was measured for COCCC(C(=O)Nc1ccc2[nH]ncc2c1)n1cc2c(cc1=O)-c1cc(Cl)ccc1CC1(CC1)NC2=O (centres unmarked) , tested on human plasma kallikrein (Homo sapiens (Human))?
Key: 330

Exercise: Could you share what IC50 was measured for O=C(Cn1cc2c(cc1=O)-c1cc(Cl)ccc1CCNC2=O)Nc1ccc(-c2noc(=O)[nH]2)cc1 , tested on human plasma kallikrein (Homo sapiens (Human))?
Key: 8300

Exercise: Could you share what IC50 was measured for COCCC(C(=O)Nc1ccc(C(=O)O)cc1)n1cc2c(cc1=O)-c1cc(Cl)ccc1CC(CF)NC2=O (centres unmarked) , tested on human plasma kallikrein (Homo sapiens (Human))?
Key: 97

Exercise: Could you share what IC50 was measured for CCC(C(=O)Nc1ccc(C(=O)O)cc1)n1cc2c(cc1=O)-c1cc(Cl)ccc1CCNC2=O (centres unmarked) , tested on human plasma kallikrein (Homo sapiens (Human))?
Key: 1900

Exercise: Could you share what IC50 was measured for CCC(C(=O)Nc1ccc(C(=O)O)cc1)n1cc2c(cc1=O)-c1cc(Cl)ccc1CC1(CC1)NC2=O (centres unmarked) , tested on human plasma kallikrein (Homo sapiens (Human))?
Key: 2100

Exercise: Could you share what IC50 was measured for CCC(C(=O)Nc1ccc(-c2noc(=O)[nH]2)cc1)n1cc2c(cc1=O)-c1cc(Cl)ccc1CCNC2=O (centres unmarked) , tested on human plasma kallikrein (Homo sapiens (Human))?
Key: 3300

Exercise: Could you share what IC50 was measured for COCCC(C(=O)Nc1cc(C(=O)O)cs1)n1cc2c(cc1=O)-c1cc(Cl)ccc1CC1(CC1)NC2=O (centres unmarked) , tested on human plasma kallikrein (Homo sapiens (Human))?
Key: 3900

Exercise: Could you share what IC50 was measured for COCCC(C(=O)Nc1ccc2nccn2c1)n1cc2c(cc1=O)-c1cc(Cl)ccc1CC1(CC1)NC2=O (centres unmarked) , tested on human plasma kallikrein (Homo sapiens (Human))?
Key: 1200

Exercise: Could you share what IC50 was measured for COCCC(C(=O)Nc1csc(C(=O)O)c1)n1cc2c(cc1=O)-c1cc(Cl)ccc1CC1(CC1)NC2=O (centres unmarked) , tested on human plasma kallikrein (Homo sapiens (Human))?
Key: 800

Exercise: Could you share what IC50 was measured for COCCC(C(=O)Nc1ccc(C(N)=O)nc1)n1cc2c(cc1=O)-c1cc(Cl)ccc1CC1(CC1)NC2=O (centres unmarked) , tested on human plasma kallikrein (Homo sapiens (Human))?
Key: 910

Exercise: Could you share what IC50 was measured for O=C(O)c1ccc(NC(=O)C(Cc2ccccc2)n2cc3c(cc2=O)-c2cc(Cl)ccc2CC2(CC2)NC3=O)cc1 (centres unmarked) , tested on human plasma kallikrein (Homo sapiens (Human))?
Key: 55

Exercise: Could you share what IC50 was measured for COCCC(C(=O)Nc1ccc(C(=O)O)nc1)n1cc2c(cc1=O)-c1cc(Cl)ccc1CC1(CC1)NC2=O (centres unmarked) , tested on human plasma kallikrein (Homo sapiens (Human))?
Key: 4500

Exercise: Could you share what IC50 was measured for CC(C)CC(C(=O)Nc1ccc(-c2noc(=O)[nH]2)cc1)n1cc2c(cc1=O)-c1cc(Cl)ccc1CCNC2=O (centres unmarked) , tested on human plasma kallikrein (Homo sapiens (Human))?
Key: 3800
